These measurements were taken from paper PMC8080620.

# test system: T1, P6A (synthetic construct, N-terminal acetylation; C-terminal amidation)
# T1 chain: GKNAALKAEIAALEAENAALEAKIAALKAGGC
# assay name: ITC
measurement type: Kd (nM)
Give a bare numeral; the unit nM is implied.

Task: // Kd lookup, key: Ac-ENAALEAKIAALKAKNAALKAEIAALEA-NH2 [P5A]
Output: 4
